Values from patent US20120252853A1

biological target: human KCNQ2 (Homo sapiens, UniProt O43526); construct: expressed in transfected cells; assay: 86Rb flux in KCNQ2 expressing cells; format: cell-based; conditions: KCNQ2 opening; Max effect determined in % of the effect of 30 mM KCl
quantity-kind: Emax (%)
Numbers only, in %.

Below, each entry is followed by its recorded Emax result.
# compound, system, readout-value
measured = [
    ("COc1ccc(C(=O)NCc2ccc3[nH]c(C)cc3c2)cc1 [Compound C5, reference compound]", "human KCNQ2 (Homo sapiens, UniProt O43526)", 17),
    ("N#Cc1ccc(C(=O)NCc2ccc3[nH]c(C(F)(F)F)cc3c2)cn1 [Compound C4, reference compound]", "human KCNQ2 (Homo sapiens, UniProt O43526)", 15),
    ("Cc1cc2cc(CNC(=O)c3occc3C)ccc2[nH]1 [Compound 1]", "human KCNQ2 (Homo sapiens, UniProt O43526)", 2),
    ("Cc1ncc(C(=O)NCc2ccc3[nH]c(C(F)(F)F)cc3c2)s1 [Compound 66]", "human KCNQ2 (Homo sapiens, UniProt O43526)", 3.7),
    ("O=C(NCc1ccc2[nH]c(C(F)(F)F)cc2c1)c1ncc(C(F)(F)F)cn1 [Compound C1, reference compound]", "human KCNQ2 (Homo sapiens, UniProt O43526)", 34),
    ("O=C(NCc1ccc2[nH]c(C(F)(F)F)cc2c1)c1cnn(CC(F)(F)F)c1 [Compound 40]", "human KCNQ2 (Homo sapiens, UniProt O43526)", 2.4),
]

Items follow; give Emax for each.
1. Cc1cc(C(=O)NCc2ccc3[nH]c(C)cc3c2)on1 [Compound 28]
2. Cc1cc(C(=O)N[C@H](C)c2ccc3[nH]c(C)cc3c2)on1 [Compound 61]
3. O=C(NCc1ccc2[nH]c(C(F)(F)F)cc2c1)c1ccno1 [Compound 31]
4. Cc1cc2cc(CNC(=O)c3cnn(C)c3)ccc2[nH]1 [Compound 29]
5. Cc1cc2cc(CNC(=O)c3ccccc3F)ccc2n1C [Compound C6, reference compound]

OUT:
5.7
-5
4.8
4
13

Items follow; give Emax for each.
1. Cn1cc(C(=O)NCc2ccc3[nH]c(C(F)(F)F)cc3c2)cn1 [Compound 30]
2. Cc1cc2cc(CNC(=O)c3cnn(CC(F)(F)F)c3)ccc2[nH]1 [Compound 36]
3. Cc1cc(C(=O)NC(C)c2ccc3[nH]c(C(F)(F)F)cc3c2)on1 (single isomer, unassigned) [Compound 96]
4. O=C(NCc1ccc2[nH]c(C(F)(F)F)cc2c1)c1ccc(-c2ccccc2)nc1 [Compound C2, reference compound]

OUT:
[9.6, 3.3, 5.4, 31]

IN: Given the entry Cc1cc2cc(CNC(=O)c3cnc(C)s3)ccc2[nH]1 [Compound 35] , what Emax was observed with human KCNQ2 (Homo sapiens, UniProt O43526)?
OUT: 7.5
